- experimentalTarget: T1, GST 택(tag)이 달린 IL-33 (human, UniProt O95760 112-270)
- T1 construct: also called GST-IL-33; 재조합 GST-IL-33; not shown: Glutathione S-transferase (GST) tag; It is N-terminal, since stop codons pla
- T1 sequence: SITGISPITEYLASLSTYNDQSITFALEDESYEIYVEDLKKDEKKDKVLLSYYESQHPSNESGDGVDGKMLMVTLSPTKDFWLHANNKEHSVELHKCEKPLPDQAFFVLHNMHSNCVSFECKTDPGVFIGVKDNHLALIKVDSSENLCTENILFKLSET
- testProtocol: ELISA, antigen fixed and scFv titrated
measuredAttribute: Kd (nM)
Form entry: value (nM) — number only.

C2_2E12 (scFv, The recombinant scFv was purified on Ni-NTA agarose and detected with anti-HA-HRP, so the protein tested probably carried His and HA tags; also called Anti-IL-33 scFv C2_2E12; 재조합 C2_2E12 scFv 항체) scFv: EVQLLESGGGLVQPGGSLRLSCAASGFTFSSYYMSWVRQAPGKGLEWVSAISPGSSNKYYADSVKGRFTISRDNSKNTLYLQMNSLRAEDTAVYYCARLTLSFDYWGQGTPVTVSSGGGGSGGGGSGGGGSQSVLTQPPSASGTPGQRVTISCSGSSSNIGSNDVSWYQQLPGTAPKLLIYADSKRPSGVPDRFSGSKSGTSASLAISGLRSEDEADYYCASWDSSLSAYVFGGGTKLTVLG ... 28

# next binder below
Per the records, this binder ( C2_2E1 (scFv, scFv clone from a synthetic human scFv phage library; also called Anti-IL-33 scFv C2_2E1) scFv: EVQLLESGGGLVQPGGSLRLSCAASGFTFSSYYMSWVRQAPGRGLEWVSAISPGSSNKYYADSVKGRFTISRDNSKNTLYLQMNSLRAEDTAVYYCARMTSSFDYWGQGTLVTVSSGGGGSGGGGSGGGGSQSVLTQPPSASGTPGQRVTISCSGSSSNIGNNDVSWYQQLPGTAPKLLIYSDSQRPSGVPDRFSGSKSGTSASLAISGLRSEDEADYYCGSWDYSLSAYVFGGGTKLTVLGQAGQHHHHHHGAYPYDVPDYAS ) has Kd equal to 35
